Test system: RPMI-8226
Assay: NCI tumour cell line growth inhibition, 48 h
Calls of active or inactive are those of the source. Cut-off read from the data, not from the text of the source: active = GI50 up to about 1.1 µM and inactive = higher.

{"structure": "COc1ccc(C(F)(F)F)cc1NC(=O)O/N=C(/Cl)C(C)C", "GI50": "1.71 µM (inactive)"}
{"structure": "CN(NC(=O)c1cccs1)C1=NCCCCN1", "GI50": "> 100 µM (inactive)"}
{"structure": "Nc1ccc(CCN2CCN(CCCc3ccccc3)CC2)cc1", "GI50": "46.7 µM (inactive)"}
{"structure": "CC(=O)OCc1ccc2oc(=O)c(C(=O)Oc3cccc(Cl)c3)cc2c1", "GI50": "> 100 µM (inactive)"}
{"structure": "Cc1cc(C)nc(NS(=O)(=O)c2ccc(NC(=O)c3ccc(Cl)c4c(Nc5ccc(S(=O)(=O)N=C(N)N)cc5)c5ccccc5nc34)cc2)n1", "GI50": "28.1 µM (inactive)"}

Cited source: ChEMBL document CHEMBL1201862
